method_description: Dispersive biomimetic solid-phase extraction (d-BMSPE) with PC-modified POP material
Assay type: in vitro ADME
experimental_conditions: value = RMBE x 10^4; mol analyte extracted per mol PC attached; PBS pH 7.4, 37 °C, 30 min
reported_property: RMBE·10^4 (relative mol bioextraction)

// worked examples, RMBE·10^4 (relative mol bioextraction) included
{"columns": ["compound", "reported_property", "reported"],
 "data": [
  ["NS(=O)(=O)c1cc(C(=O)O)c(NCc2ccco2)cc1Cl [FUR, furosemide]", "RMBE·10^4 (relative mol bioextraction)", "49.8 ± 0.9 mol CEC/mol PC"],
  ["CN(C)C(=N)N=C(N)N", "RMBE·10^4 (relative mol bioextraction)", "3.6 ± 0.7 mol CEC/mol PC"],
  ["CN/C(=N/CCSCc1nc[nH]c1C)NC#N", "RMBE·10^4 (relative mol bioextraction)", "9.6 ± 1.7 mol CEC/mol PC"],
  ["O=C(O)Cc1ccccc1Nc1c(Cl)cccc1Cl", "RMBE·10^4 (relative mol bioextraction)", "22.6 ± 0.8 mol CEC/mol PC"]
]}

Could you now look at the following compound, please?
Query :: Look up RMBE·10^4 (relative mol bioextraction) for this compound: CC(=O)Nc1ccc(O)cc1
Result :: 60.3 ± 1.5 mol CEC/mol PC

====

method_description: Dispersive biomimetic solid-phase extraction (d-BMSPE) with PC-modified POP material
Assay type: in vitro ADME
experimental_conditions: 3.5 mg/L CEC in 5 mL PBS pH 7.4, ca. 40 mg PC-modified POP, 15 rpm, 30 min, 37 °C
Recorded d-BMSPE extraction efficiency by entry

// worked examples, d-BMSPE extraction efficiency included
{"columns": ["compound", "reported_property", "reported"],
 "data": [
  ["O=C(O)Cc1ccccc1Nc1c(Cl)cccc1Cl", "d-BMSPE extraction efficiency", "10.6 ± 1.1%"],
  ["NS(=O)(=O)c1cc(C(=O)O)c(NCc2ccco2)cc1Cl [FUR, furosemide]", "d-BMSPE extraction efficiency", "26.3 ± 1.1%"],
  ["CC(=O)Nc1ccc(O)cc1", "d-BMSPE extraction efficiency", "15.3 ± 0.8%"]
]}

Could you now look at the following compound, please?
Query :: Look up d-BMSPE extraction efficiency for this compound: CN/C(=N/CCSCc1nc[nH]c1C)NC#N
Result :: 4.6 ± 2.1%
